Target: MERTK (UniProt Q12866)
Sequence (Q12866 whole entry, looked up): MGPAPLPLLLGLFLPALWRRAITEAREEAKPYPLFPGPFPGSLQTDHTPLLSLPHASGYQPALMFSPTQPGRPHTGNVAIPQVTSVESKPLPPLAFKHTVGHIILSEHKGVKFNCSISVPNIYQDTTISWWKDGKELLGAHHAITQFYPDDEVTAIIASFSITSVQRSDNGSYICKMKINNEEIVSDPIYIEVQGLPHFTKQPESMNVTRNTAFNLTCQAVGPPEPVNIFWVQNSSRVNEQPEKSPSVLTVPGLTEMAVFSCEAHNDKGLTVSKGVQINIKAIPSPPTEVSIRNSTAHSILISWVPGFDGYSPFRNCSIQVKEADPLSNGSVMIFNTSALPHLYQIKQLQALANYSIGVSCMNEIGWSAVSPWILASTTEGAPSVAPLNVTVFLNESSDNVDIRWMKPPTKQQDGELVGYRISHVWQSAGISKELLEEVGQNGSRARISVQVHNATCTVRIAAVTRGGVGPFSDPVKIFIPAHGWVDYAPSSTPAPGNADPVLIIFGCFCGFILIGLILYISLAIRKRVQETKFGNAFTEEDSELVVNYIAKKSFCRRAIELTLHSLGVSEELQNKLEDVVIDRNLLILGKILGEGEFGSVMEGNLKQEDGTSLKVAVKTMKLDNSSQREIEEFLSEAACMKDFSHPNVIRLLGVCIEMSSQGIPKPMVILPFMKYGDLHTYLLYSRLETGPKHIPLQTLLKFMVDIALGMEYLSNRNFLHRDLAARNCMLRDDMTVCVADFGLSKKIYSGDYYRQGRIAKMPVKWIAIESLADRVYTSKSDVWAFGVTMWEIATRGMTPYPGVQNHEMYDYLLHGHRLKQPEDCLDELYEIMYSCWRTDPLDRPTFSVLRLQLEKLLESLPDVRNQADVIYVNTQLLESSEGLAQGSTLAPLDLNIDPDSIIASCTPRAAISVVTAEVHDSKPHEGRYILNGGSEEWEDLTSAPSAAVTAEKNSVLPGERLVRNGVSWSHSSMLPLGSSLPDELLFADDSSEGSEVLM
Assay: phosphorylation enrichment, bacterial display (enrichment ratio); higher = better substrate or ligand; peptides without Tyr show the background;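 further: 11-residue human phosphosite peptides and single-mutation variants displayed on the E. coli surface, counted by deep sequencing, each peptide's frequency after selection divided by its frequency in the unselected input library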;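 further: frequency after pTyr selection over input frequency; kinase dosed for 20-30% of maximal phosphorylation in three min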
Decide using phosphorylation enrichment: a value greater than or equal to 0.5 is yes, a smaller one is no.

// below: answered sequences
VEDPEYAVTQL [STOML2_Y124]    no
LINLKYSVEEE [PCDH19_Y27]    yes
TQRPYYKGGGG [TYROBP_Y112]    yes
GCKKRYDKDKP [THAP1_Y14_N12K]    yes

q: Please check the record DFFDLYGGEKL [PTPN11_Y66_F71L_YF] and state if its phosphorylation enrichment is at or above 0.5.
a: yes

q: Please check the record ESMLRYDVFGG [STOX1_Y607_E608D_YF] and state if its phosphorylation enrichment is at or above 0.5.
a: yes

q: Please check the record LARDMCDKEFF [MET_Y1230_Y1230C_YF] and state if its phosphorylation enrichment is at or above 0.5.
a: yes

q: Please check the record DAAEDYAEGVR [DHODH_Y194] and state if its phosphorylation enrichment is at or above 0.5.
a: no

q: Please check the record KYVKMCDNHQL [MYO9A_Y203_Y203C] and state if its phosphorylation enrichment is at or above 0.5.
a: no

q: Please check the record NLSVPYDSSLK [ABCC8_Y1353_R1352P] and state if its phosphorylation enrichment is at or above 0.5.
a: no

q: Please check the record VEQIHYIGQNE [HMOX2_Y140_R137Q] and state if its phosphorylation enrichment is at or above 0.5.
a: no

Data credit: the supplement of paper PMC10065799
